In this section we review reported protein stability index values for a set of sequences.
test: protein stability index of a GFP-peptide fusion (yeast GPS) (PSI 1-4); higher = more stable; sorted into four equal gates, so the index is relative within each strain; settings: san1∆
# output: bare number, no unit

Some solved entries appear below for comparison.
What value of measured protein stability index is listed for EVDEKPTETYSDVGGLD [RPT5] ?
3.16

What value of measured protein stability index is listed for KIQFILEQMELSILKGD [RPN5] ?
2.35

What value of measured protein stability index is listed for TNNKKLLEKANNQQRLL [SMC3] ?
2.58

What value of measured protein stability index is listed for KFLQEFINLLLNCCGSV [IRR1] ?
1.57

What value of measured protein stability index is listed for NELLKCKDDVQLQKILE [MTW1] ?
3.05

Further cases:
What value of measured protein stability index is listed for QINIMPSLKAHFTEIKL [SIR3] ?
2.29

What value of measured protein stability index is listed for NERLEINQEKPVKLDEN [SIR4] ?
3.44

* * *

test: protein stability index of a GFP-peptide fusion (yeast GPS) (PSI 1-4); higher = more stable; sorted into four equal gates, so the index is relative within each strain; conditions: doa10∆
endpoint: protein stability index
# output: bare number, no unit

What value of measured protein stability index is listed for REAYIENFAKGEHISAI [SWP82] ?
2.98

What value of measured protein stability index is listed for DHVDGSSEFVSQDTKVI [RRP46] ?
2.64

What value of measured protein stability index is listed for NKAQAKMDKRAKNSDSA [RPL8A] ?
3.43

What value of measured protein stability index is listed for PFGAKSTKSNKTRNPLT [RPL8A] ?
2.73

What value of measured protein stability index is listed for AKKTIQNPLNKSQNTAL [SIR4] ?
3.02

What value of measured protein stability index is listed for ANFIFSPASGIVDKYIG [RPT4] ?
2.81

What value of measured protein stability index is listed for MHKQLAYILAAQKTSFE [RPN1] ?
2.37

What value of measured protein stability index is listed for YNALFQQNIKFRRDFLL [YJL039C/NUP192] ?
2.38

What value of measured protein stability index is listed for ATVPSGRPETYIWRYLP [RPO31] ?
2.27

What value of measured protein stability index is listed for QPQPQPQQQQQHLQFNG [YDL088C/ASM4] ?
2.6

What value of measured protein stability index is listed for VELIESKINELSYYVEE [SMC4] ?
3.29

What value of measured protein stability index is listed for GKGDNDNGLGPLKYAPH [SWI3] ?
2.69

* * *

assay: protein stability index of a GFP-peptide fusion (yeast GPS) (PSI 1-4); higher = more stable; sorted into four equal gates, so the index is relative within each strain; settings: doa10∆
endpoint: protein stability index
# output: bare number, no unit

Some solved entries appear below for comparison.
What value of measured protein stability index is listed for PGSSITETEVEREQPQE [SRB4] ?
3.09

What value of measured protein stability index is listed for ALNKISKYYPGVIIKVE [SNU114] ?
2.04

What value of measured protein stability index is listed for FHKQQAHFWKPVLNLDK [RPL28] ?
2.93

What value of measured protein stability index is listed for EKSDALVGVYRQQQENS [SMC1] ?
3.25

What value of measured protein stability index is listed for ELNEEKKRLMDIDDELN [SMC2] ?
3.23

What value of measured protein stability index is listed for PVYTAQWSATWIAMRRE [PRP8] ?
1.68

Further cases:
What value of measured protein stability index is listed for HYGLAVDIYTHFTSPIR [DIS3] ?
1.56

What value of measured protein stability index is listed for PVRALIVQAKEPNLAAQ [ECM29] ?
2.14

What value of measured protein stability index is listed for SYYSREQDALFITRLAQ [RPN1] ?
1.71

What value of measured protein stability index is listed for GKGLQSAIDVLDPLTKD [RPN2] ?
2.28

What value of measured protein stability index is listed for STQPSFAWSKPSTGSNL [YGR119C/NUP57] ?
2.98

What value of measured protein stability index is listed for HDKNIQKLLKQLDSDAN [ISW2] ?
2.58

What value of measured protein stability index is listed for LATRRVLQEYRLTKQAF [RPO21] ?
2.99

What value of measured protein stability index is listed for NIAFDAHMSIGCLHKGK [YML031W/NDC1] ?
3.07

What value of measured protein stability index is listed for TIFNLPKNKLVPTLEAK [FAS1] ?
2.27

What value of measured protein stability index is listed for ATSDNKTTNTTPSFSFG [YJL041W/NSP1] ?
3.13

What value of measured protein stability index is listed for DVLKSQANTEPENITKR [MCD1] ?
3.06

What value of measured protein stability index is listed for SARGIETRPAQVILPMS [FAS2] ?
3.06

What value of measured protein stability index is listed for PTSPAYSPTSPSYSPTS [RPO21] ?
2.89
